Reported GM-MIC values for a set of compounds
Tested on: Candida haemulonii var. vulnera
Procedure Summary: Planktonic growth, broth microdilution (CLSI M27-A3), MIC
Assay type: cell-based
Study Conditions: geometric mean of three C. haemulonii var. vulnera isolates
Text: Three clinical isolates of each species that form the C. haemulonii complex were used in this study: C. haemulonii (LIPCh4 from finger nail, LIPCh7 from toe nail, and LIPCh12 from blood), C. duobushaemulonii (LIPCh1 from finger nail, LIPCh6 from toe nail, and LIPCh8 from blood) and C. haemulonii var. vulnera (LIPCh5 from toe nail, LIPCh9 from urine, and LIPCh11 from blood) (Ramos et al., [2015]). […]

O=[N+]([O-])[O-].[Ag+] [AgNO3, reference compound]    0.5 mg/L
O.O.O.O.O.O=C([O-])c1ccccc1C(=O)[O-].[Mn+2].c1cnc2c(c1)ccc1cccnc12.c1cnc2c(c1)ccc1cccnc12 [compound 9, [Mn(ph)(phen)2(H2O)].4H2O]    2 mg/L
[Cl][Cu][Cl] [CuCl2, reference compound]    >32 mg/L
O.O.O.O.O.O.O.O.O.O.O.O.O.O.O.O.O=C([O-])c1cccc(C(=O)[O-])c1.O=C([O-])c1cccc(C(=O)[O-])c1.[Mn+2].[Mn+2].c1cnc2c(c1)ccc1cccnc12.c1cnc2c(c1)ccc1cccnc12.c1cnc2c(c1)ccc1cccnc12.c1cnc2c(c1)ccc1cccnc12.c1cnc2c(c1)ccc1cccnc12 [compound 11, {[Mn(phen)2(H2O)2]}2(isoph)2(phen).12H2O]    2.52 mg/L

# compound CCO.O.O.O.O.O.O.O=C([O-])c1cccc(C(=O)[O-])c1.[Cu+2].c1cnc2c(c1)ccc1cccnc12.c1cnc2c(c1)ccc1cccnc12 [compound 3, [Cu(isoph)(phen)2].6H2O.EtOH] ; its GM-MIC = 6.35 mg/L

# compound O.O.O.O.O=C([O-])c1cccc(C(=O)[O-])c1.O=C([O-])c1cccc(C(=O)[O-])c1.[Mn+2].[Mn+2].c1cnc2c(c1)ccc1cccnc12.c1cnc2c(c1)ccc1cccnc12.c1cnc2c(c1)ccc1cccnc12 [compound 10, [Mn2(isoph)2(phen)3].4H2O] ; its GM-MIC = 4 mg/L

# compound "CCO.CCO.O=C([O-])c1ccc(C(=O)[O-])cc1.O=C([O-])c1ccc(C(=O)[O-])cc1.[Cu+2].[Cu+2].c1cnc2c(c1)ccc1cccnc12.c1cnc2c(c1)ccc1cccnc12.c1cnc2c(c1)ccc1cccnc12.c1cnc2c(c1)ccc1cccnc12" ; its GM-MIC = 32 mg/L

# compound O.O.O=C([O-])c1ccccc1C(=O)[O-].[Mn+2].c1cnc2c(c1)ccc1cccnc12 [compound 8, [Mn(ph)(phen)(H2O)2]] ; its GM-MIC = 4 mg/L

# compound O.O.O=C([O-])c1ccccc1C(=O)[O-].[Cu+2].c1cnc2c(c1)ccc1cccnc12 [compound 1, [Cu(ph)(phen)(H2O)2]] ; its GM-MIC = >32 mg/L
